# system: human melanocortin 4 receptor (human, UniProt P32245 1-332)
# Sequence (P32245 whole entry): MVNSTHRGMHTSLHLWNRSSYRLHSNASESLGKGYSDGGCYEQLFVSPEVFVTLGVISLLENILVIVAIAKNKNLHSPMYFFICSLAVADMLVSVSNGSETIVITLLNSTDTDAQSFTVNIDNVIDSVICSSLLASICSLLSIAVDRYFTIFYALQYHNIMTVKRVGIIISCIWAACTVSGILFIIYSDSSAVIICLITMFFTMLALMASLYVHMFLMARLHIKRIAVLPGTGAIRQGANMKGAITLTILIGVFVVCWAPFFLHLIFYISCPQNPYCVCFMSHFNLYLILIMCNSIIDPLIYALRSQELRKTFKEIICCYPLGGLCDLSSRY
# assayProcedure: cell-based or functional assay
Positions of bridges follow the written chain, without caps; N, C: chain ends. Non-standard residues stand in square brackets, D forms with d. Phe(3,4-Cl2) = N[C@@H](Cc1ccc(Cl)c(Cl)c1)C(=O)O; Hyp = O=C(O)[C@@H]1C[C@@H](O)CN1
Measured MC4R cAMP EC50 accompanies every entry in the list below.
Numbers only; they are read as nM.

binder: cyclo(CKH[dF]HWCAKKKW) (disulfide 1-7; SMILES C[C@@H]1NC(=O)[C@@H]2CSSC[C@H](NC(=O)[C@H](Cc3c[nH]c4ccccc34)NC(=O)[C@H](CCCCN)NC(=O)[C@H](CCCCN)NC(=O)[C@H](CCCCN)NC1=O)C(=O)N[C@@H](CCCCN)C(=O)N[C@@H](Cc1c[nH]cn1)C(=O)N[C@H](Cc1ccccc1)C(=O)N[C@@H](Cc1c[nH]cn1)C(=O)N[C@@H](Cc1c[nH]c3ccccc13)C(=O)N2, also called c[c[Cys-Lys-His-D-Phe-His-Trp-Cys]-Ala-Lys-Lys-Lys-Trp]) [Chem. 76]
readoutLabel: MC4R cAMP EC50
number: 0.16

binder: cyclo(CAH[dF]R[Phe(3,4-Cl2)]CAKKKW) (disulfide 1-7; SMILES C[C@@H]1NC(=O)[C@@H]2CSSC[C@H](NC(=O)[C@H](Cc3ccc(Cl)c(Cl)c3)NC(=O)[C@H](CCCNC(=N)N)NC(=O)[C@@H](Cc3ccccc3)NC(=O)[C@H](Cc3c[nH]cn3)NC1=O)C(=O)N[C@@H](C)C(=O)N[C@@H](CCCCN)C(=O)N[C@@H](CCCCN)C(=O)N[C@@H](CCCCN)C(=O)N[C@@H](Cc1c[nH]c3ccccc13)C(=O)N2, also called c[c[Cys-Ala-His-D-Phe-Arg-3,4-DiCl-Phe-Cys]-Ala-Lys-Lys-Lys-Trp]) [Chem. 66]
readoutLabel: MC4R cAMP EC50
number: 0.01

binder: cyclo(C[Hyp]H[dF]HWCAKKKR) (disulfide 1-7; SMILES C[C@@H]1NC(=O)[C@@H]2CSSC[C@H](NC(=O)[C@H](CCCNC(=N)N)NC(=O)[C@H](CCCCN)NC(=O)[C@H](CCCCN)NC(=O)[C@H](CCCCN)NC1=O)C(=O)N1C[C@H](O)C[C@H]1C(=O)N[C@@H](Cc1c[nH]cn1)C(=O)N[C@H](Cc1ccccc1)C(=O)N[C@@H](Cc1c[nH]cn1)C(=O)N[C@@H](Cc1c[nH]c3ccccc13)C(=O)N2, also called c[c[Cys-Hyp-His-D-Phe-His-Trp-Cys]-Ala-Lys-Lys-Lys-Arg]) [Chem. 97]
readoutLabel: MC4R cAMP EC50
number: 0.19

# context switch: different binder, same MC4R cAMP EC50
Consider cyclo(CGH[dF]RWCGH[dF]RW) (disulfide 1-7; SMILES N=C(N)NCCC[C@@H]1NC(=O)[C@@H](Cc2ccccc2)NC(=O)[C@H](Cc2c[nH]cn2)NC(=O)CNC(=O)[C@@H]2CSSC[C@H](NC(=O)[C@H](Cc3c[nH]c4ccccc34)NC1=O)C(=O)NCC(=O)N[C@@H](Cc1c[nH]cn1)C(=O)N[C@H](Cc1ccccc1)C(=O)N[C@@H](CCCNC(=N)N)C(=O)N[C@@H](Cc1c[nH]c3ccccc13)C(=O)N2, also called c[c[Cys-Gly-His-D-Phe-Arg-Trp-Cys]-Gly-His-D-Phe-Arg-Trp]) [Chem. 2] . Its measured MC4R cAMP EC50 is 0.01

Attribution: patent US20200223889A1
